Listing: apparent KD of MS2 coat protein of selected sequences
- Test system: MS2 coat protein
- measurement description: apparent KD of MS2 coat protein; designed switch direction (-1 OFF switch, 1 ON switch): 1; higher = weaker reporter binding
- conditions used: input ligand: none
Form entry: value (nM) — number only.

Here is how some sequences turned out for apparent KD of MS2 coat protein.
- biopolymer sequence: "AAUUAAGAUCGAGGAUAUCACGUCGAUUAGACGUGAGAAGGCGAUCAUAACAUGAGGAUCACCCAUGUAUUACAUGAAUUAAUU [SSNG1/4-B2] (Eterna round: R96, puzzle: Same State NG 1)"
  target desc: "MS2 coat protein"
  unit string: "nM"
  apparent KD of MS2 coat protein: 36.6
- biopolymer sequence: "GGUGCGAAUAAAGCCUACAUGAGGAUCACCCAUGUAUGUAGGCAGGAUAUCGUUUGCAAAGCAAACGAGAAGGGCUGUCGCACC [Mat - Same State NG 3 - JL Mod - D46] (Eterna round: R96, puzzle: Same State NG 3)"
  target desc: "MS2 coat protein"
  unit string: "nM"
  apparent KD of MS2 coat protein: 100
- biopolymer sequence: "UUGAAGAAUUAAGGAUAUCGAGUCGUCAGAUUUUACAUGAGGAUCACCCAUGUGGGUUGCGGUAUCGAGAAGGUAAAUUACAAG [JL JR Sub099 mod 6] (Eterna round: R96, puzzle: Same State NG 2)"
  target desc: "MS2 coat protein"
  unit string: "nM"
  apparent KD of MS2 coat protein: 43.3
- biopolymer sequence: "AGCUAUUAAUCAGGAUAUGGUCACAUGAGGAUCACCCAUGUAUAGAUGAUAAAAUGUGGUCUACACUAGAAGGGAUUGCUAACA [SameState NG2 #59] (Eterna round: R96, puzzle: Same State NG 2)"
  target desc: "MS2 coat protein"
  unit string: "nM"
  apparent KD of MS2 coat protein: 106
- biopolymer sequence: "CCGUAAUAUGGAGGAUAUGGAGCCUUAUUGGCUCCAGAAGGUCAAAACACAUGAGGAUCACCCAUGUCGGCGGUCAAUAGACCG [Eli NG1ss - 75] (Eterna round: R96, puzzle: Same State NG 1)"
  target desc: "MS2 coat protein"
  unit string: "nM"
  apparent KD of MS2 coat protein: 45.3
- biopolymer sequence: "GCCAUCGUAUGAGGAUAUGGCACCGUUUCGGUGCCAGAAGGCAUGUCAAUUGACAUGAGGAUCACCCAUGUAUUUUCGAUGGCA [JL Fiskers NG1ss - 33 mod 11] (Eterna round: R96, puzzle: Same State NG 1)"
  target desc: "MS2 coat protein"
  unit string: "nM"
  apparent KD of MS2 coat protein: 779
- biopolymer sequence: "GCGAGCGUACUUGCAGACAUGAGGAUCACCCAUGUAAAUGGGAAGGAUAUGGUACCGUUUCGGUACCAGAAGGUCCUAAGUGAU [salish99_SSNG3_r04_301] (Eterna round: R96, puzzle: Same State NG 3)"
  target desc: "MS2 coat protein"
  unit string: "nM"
  apparent KD of MS2 coat protein: 1130
- biopolymer sequence: "GCAUGAGAGAUAGGAUAUCGUGUACCUACAUGUGACAUGAGGAUCACCCAUGUGGUAAGUAUGAGCGAGAAGGAUCCGAUAUGU [salish99_SSNG2_r04_1002] (Eterna round: R96, puzzle: Same State NG 2)"
  target desc: "MS2 coat protein"
  unit string: "nM"
  apparent KD of MS2 coat protein: 60.9

Here's the next entry for you.
Lab note: need apparent KD of MS2 coat protein for GCCAUCGUGUGAGGAUAUGGCACCGUUUCGGUGCCAGAAGGCAUGUCAAUUGACAUGAGGAUCACCCAUGUAUUAGCGAUGGCA [JL Fiskers NG1ss - 33 mod 3] (Eterna round: R96, puzzle: Same State NG 1) on MS2 coat protein, anyone have it?
988
